target.entity: muscarinic receptor M4 (Homo sapiens)
Construct: expressed in transfected cells
Sequence (P08173 1-479): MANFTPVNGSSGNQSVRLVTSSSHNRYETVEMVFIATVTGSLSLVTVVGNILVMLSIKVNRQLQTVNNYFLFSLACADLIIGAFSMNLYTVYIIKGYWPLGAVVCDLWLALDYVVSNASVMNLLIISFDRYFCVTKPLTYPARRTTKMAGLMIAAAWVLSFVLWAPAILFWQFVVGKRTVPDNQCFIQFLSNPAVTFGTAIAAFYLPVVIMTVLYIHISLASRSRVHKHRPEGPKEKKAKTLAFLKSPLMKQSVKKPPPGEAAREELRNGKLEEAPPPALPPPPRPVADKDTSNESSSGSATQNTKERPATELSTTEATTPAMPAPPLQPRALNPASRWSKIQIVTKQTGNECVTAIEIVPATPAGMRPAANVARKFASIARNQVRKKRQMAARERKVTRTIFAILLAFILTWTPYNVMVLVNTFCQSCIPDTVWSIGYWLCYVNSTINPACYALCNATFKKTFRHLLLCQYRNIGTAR
protocol.text: Muscarinic receptor subtype M4 binding assay, radioligand displacement
experimental.parameters: [3]H-methylscopolamine displacement, membranes from recombinant mammalian cell lines
The compounds listed here are annotated with their Ki.
Reply numerically in nM, unit not repeated.

Cc1ccc(O)c([C@H](CCN(C(C)C)C(C)C)c2ccccc2)c1 [Tolterodine, reference compound] | 1.5
CC[N+]1(CCC(c2ccccc2)c2cc(C)ccc2O)CCCC1.[I-] (stereo not drawn) | 3.8

Note: attention shifts to another entry.
# input Look up and state reported Ki for CC(C)N(CC[C@H](c1ccccc1)c1cc(CO)ccc1O)C(C)C [Hydroxytolterodine, reference compound]
# output 1.4
